# subject_of_test: ATP-binding cassette transporter A1 (ABCA1) (UniProt P41233 1-2261, limits assumed)
# Sequence (P41233 whole entry): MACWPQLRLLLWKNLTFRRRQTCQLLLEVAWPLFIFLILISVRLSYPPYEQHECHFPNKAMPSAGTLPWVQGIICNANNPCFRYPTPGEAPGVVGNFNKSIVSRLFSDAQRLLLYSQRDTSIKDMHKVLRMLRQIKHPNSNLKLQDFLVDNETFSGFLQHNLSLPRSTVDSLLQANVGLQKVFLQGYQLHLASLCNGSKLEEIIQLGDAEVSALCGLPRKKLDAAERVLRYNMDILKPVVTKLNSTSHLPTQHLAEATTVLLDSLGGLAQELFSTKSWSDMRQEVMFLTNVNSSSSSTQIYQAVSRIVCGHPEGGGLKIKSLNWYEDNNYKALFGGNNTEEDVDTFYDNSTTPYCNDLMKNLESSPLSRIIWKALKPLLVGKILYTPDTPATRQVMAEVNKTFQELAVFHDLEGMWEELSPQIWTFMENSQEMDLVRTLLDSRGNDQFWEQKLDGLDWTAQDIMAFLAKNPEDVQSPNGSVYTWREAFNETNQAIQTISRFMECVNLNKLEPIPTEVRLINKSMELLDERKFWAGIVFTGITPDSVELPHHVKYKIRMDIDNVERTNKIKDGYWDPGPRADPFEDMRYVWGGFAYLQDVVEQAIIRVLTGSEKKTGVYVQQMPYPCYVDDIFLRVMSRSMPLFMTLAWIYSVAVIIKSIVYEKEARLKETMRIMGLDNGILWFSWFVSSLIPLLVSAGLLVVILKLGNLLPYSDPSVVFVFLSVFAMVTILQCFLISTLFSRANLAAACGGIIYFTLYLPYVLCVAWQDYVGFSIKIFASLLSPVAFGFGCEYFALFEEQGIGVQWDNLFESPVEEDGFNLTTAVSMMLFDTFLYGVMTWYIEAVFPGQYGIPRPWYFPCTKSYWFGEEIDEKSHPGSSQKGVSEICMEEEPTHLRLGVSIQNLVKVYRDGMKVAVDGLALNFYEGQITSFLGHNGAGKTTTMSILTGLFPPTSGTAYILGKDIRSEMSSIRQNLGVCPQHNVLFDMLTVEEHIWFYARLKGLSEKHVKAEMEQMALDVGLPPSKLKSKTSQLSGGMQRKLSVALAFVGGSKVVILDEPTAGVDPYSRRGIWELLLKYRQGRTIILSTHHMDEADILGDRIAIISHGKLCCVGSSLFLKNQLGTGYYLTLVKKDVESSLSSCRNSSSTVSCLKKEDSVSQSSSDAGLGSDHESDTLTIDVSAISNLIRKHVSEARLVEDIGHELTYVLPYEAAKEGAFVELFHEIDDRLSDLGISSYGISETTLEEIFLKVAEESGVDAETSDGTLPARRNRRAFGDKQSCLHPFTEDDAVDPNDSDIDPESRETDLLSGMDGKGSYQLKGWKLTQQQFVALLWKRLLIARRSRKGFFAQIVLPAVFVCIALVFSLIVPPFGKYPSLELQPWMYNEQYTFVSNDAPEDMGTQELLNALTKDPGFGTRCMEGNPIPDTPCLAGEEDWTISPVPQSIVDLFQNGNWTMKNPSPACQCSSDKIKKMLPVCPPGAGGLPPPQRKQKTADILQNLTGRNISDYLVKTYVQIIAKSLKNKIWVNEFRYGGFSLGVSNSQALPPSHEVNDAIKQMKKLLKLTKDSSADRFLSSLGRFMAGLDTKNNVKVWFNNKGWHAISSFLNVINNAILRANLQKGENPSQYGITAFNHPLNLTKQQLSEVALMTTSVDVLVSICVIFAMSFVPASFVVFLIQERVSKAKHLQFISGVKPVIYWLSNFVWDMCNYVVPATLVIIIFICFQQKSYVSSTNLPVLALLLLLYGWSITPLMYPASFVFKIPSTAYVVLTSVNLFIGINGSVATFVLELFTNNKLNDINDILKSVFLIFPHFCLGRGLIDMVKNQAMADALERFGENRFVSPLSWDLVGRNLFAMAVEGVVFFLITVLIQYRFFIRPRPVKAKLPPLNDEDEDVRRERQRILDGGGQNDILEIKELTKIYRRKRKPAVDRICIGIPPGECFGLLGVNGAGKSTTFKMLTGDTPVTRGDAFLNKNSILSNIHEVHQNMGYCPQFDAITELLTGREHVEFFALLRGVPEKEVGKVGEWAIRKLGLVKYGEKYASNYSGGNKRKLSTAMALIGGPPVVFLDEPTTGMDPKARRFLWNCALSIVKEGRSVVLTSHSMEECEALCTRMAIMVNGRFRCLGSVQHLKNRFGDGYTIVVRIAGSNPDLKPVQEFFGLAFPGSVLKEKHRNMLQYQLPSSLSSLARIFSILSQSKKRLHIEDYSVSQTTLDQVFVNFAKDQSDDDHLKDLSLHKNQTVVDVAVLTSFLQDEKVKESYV
# assay_method_text: cell-based or functional assay
Please enter fulfilled where % cholesterol efflux/4 hours at 0.3 µg/ml is greater than or equal to 0.4%, and not fulfilled where it is lower.

* ELRDRLEAWFDLFREFLERF [N1154-4] | fulfilled
* DLRDRLDAWFDLFRDFLDRF [N1154-5] | fulfilled
* ELRDKLEAWFDLFREFLERF [N1154-2] | fulfilled
* DLRDKLDAWFDLFRDFLDRF [N1154-3] | not fulfilled
